- experimental system: T1, recombinant His-tagged human TIGIT-ECD protein (human, UniProt Q495A1 22-141)
- T1 construct: extracellular domain; The ELISA text only says His-tagged human TIGIT; also called His-tagged TIGIT; human TIGIT protein; not shown: His tag
- T1 sequence (looked up): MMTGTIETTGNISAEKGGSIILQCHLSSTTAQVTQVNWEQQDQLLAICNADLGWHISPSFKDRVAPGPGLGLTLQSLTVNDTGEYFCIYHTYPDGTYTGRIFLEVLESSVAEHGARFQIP
- test description: SPR affinity ranking (Biacore T200)
reported metric: kon (M⁻¹ s⁻¹)
Give your result in M⁻¹ s⁻¹ as a bare value.

{"binder": "101E1HM-3 (antibody, V domains shown) VH: QVQLQESGPGLVKPSQTLSLTCTVSGYSITDDYAWNWIRQPPGKGLEWMGYISYSGDTKYNPSLKSRVTISRDTSKNQFSLKLSSVTAADTAVYYCARKYYGGWFPVWGQGTLVTVSS VL: DIQMTQSPSSLSASVGDRVTITCKASQDVFTAVAWYQQKPGKAPKLLIYSASNRNTGVPSRFSGSGSGTDFTFTISSLQPEDFATYYCQQQYSTPWTFGQGTRLEIK", "reported metric": "kon", "measured": "1.29e+06"}
{"binder": "101E1HM-1 (antibody, V domains shown) VH: QVQLQESGPGLVKPSQTLSLTCTVSGYSITDDYAWNWIRQPPGKGLEWMGYISYSGHTKYNPSLKSRVTISRDTSKNQFSLKLSSVTAADTAVYYCARKYYGGWFPRWGQGTLVTVSS VL: DIQMTQSPSSLSASVGDRVTITCKASQDVFTAVAWYQQKPGKAPKLLIYSASYRPTGVPSRFSGSGSGTDFTFTISSLQPEDFATYYCQQSYSTPWTFGQGTRLEIK", "reported metric": "kon", "measured": 496000}

# input for lookup
Item under review: 101E1HM-4 (antibody, V domains shown) VH: QVQLQESGPGLVKPSQTLSLTCTVSGYSITDDYAWNWIRQPPGKGLEWMGYISYSGHTRYNPSLKSRVTISRDTSKNQFSLKLSSVTAADTAVYYCARKYYGSWFPDWGQGTLVTVSS VL: DIQMTQSPSSLSASVGDRVTITCKASQDVFTAVAWYQQKPGKAPKLLIYSASYRMTGVPSRFSGSGSGTDFTFTISSLQPEDFATYYCQQSYSTPWTFGQGTRLEIK . Reported kon? 1.43e+06
